Reported Max Inhibition (%), efferocytosis by human macrophages, Average (3 Donors) by item:
experimental-system: T1, human MerTK on human macrophages (human, UniProt Q12866 21-999)
T1 sequence: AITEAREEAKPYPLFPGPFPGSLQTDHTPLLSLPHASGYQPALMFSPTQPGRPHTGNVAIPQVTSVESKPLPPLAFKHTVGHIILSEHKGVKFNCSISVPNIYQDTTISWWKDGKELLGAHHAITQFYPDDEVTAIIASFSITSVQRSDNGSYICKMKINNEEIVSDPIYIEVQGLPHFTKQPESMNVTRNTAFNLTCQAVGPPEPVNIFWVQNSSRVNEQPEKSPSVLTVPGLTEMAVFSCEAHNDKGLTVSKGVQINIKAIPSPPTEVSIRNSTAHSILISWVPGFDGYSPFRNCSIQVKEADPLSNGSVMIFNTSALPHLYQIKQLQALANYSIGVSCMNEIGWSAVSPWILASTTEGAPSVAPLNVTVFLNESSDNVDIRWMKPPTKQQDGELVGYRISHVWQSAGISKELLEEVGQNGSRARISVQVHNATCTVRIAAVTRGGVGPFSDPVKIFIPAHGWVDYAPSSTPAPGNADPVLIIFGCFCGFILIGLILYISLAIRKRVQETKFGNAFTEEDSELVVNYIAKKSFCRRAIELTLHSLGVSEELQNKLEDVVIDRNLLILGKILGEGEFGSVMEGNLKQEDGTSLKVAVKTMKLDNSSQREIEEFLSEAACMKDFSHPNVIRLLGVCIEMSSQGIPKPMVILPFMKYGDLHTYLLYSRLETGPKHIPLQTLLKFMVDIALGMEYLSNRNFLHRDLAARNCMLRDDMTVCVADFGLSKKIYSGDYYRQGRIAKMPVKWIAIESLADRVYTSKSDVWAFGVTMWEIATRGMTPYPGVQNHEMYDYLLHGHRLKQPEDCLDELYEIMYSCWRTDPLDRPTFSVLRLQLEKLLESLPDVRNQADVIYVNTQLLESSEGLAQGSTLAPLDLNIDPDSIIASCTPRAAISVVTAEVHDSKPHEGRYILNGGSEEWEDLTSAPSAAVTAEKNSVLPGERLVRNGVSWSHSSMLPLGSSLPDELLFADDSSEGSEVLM
experiment-summary: cell-based or functional assay
measured-property: Max Inhibition (%), efferocytosis by human macrophages, Average (3 Donors)

>  <binder>
h10F7.v16 (antibody, V domains shown, Humanized, human IgG1; also called 10F7 Fully Humanized; 10F7 Humanized polished mAb) VH: EVQLVESGGGLVQPGGSLRLSCAVSGFSLSGYAMSWVRQAPGKGLEYIGVISSSGSSYYPSWAKGRFTISKDNSKNTLYLQMGSLRAEDMAVYYCARVQFYVGYAVYGYGIIDRLDLWGQGTLVTVSS VL: DIVLTQSPDSLAVSLGERATINCQSSKSVYNNNWLSWYQQKPGQPPKLLIYRASTLESGVPDRFSGSGSGTDFTLTISSLQAEDVAVYFCAGGYSSSSSANAFGGGTKVEIK

>  <reported-value>
69

$$$$
>  <binder>
h9E3.FN.v16 (antibody, V domains shown, Humanized, human IgG1; also called 9E3.FN Humanized polished mAb) VH: EVQLVESGGGLIQPGGSLRLSCAASGFSLSSNAMSWVRQAPGKGLEWVSIISSSGSTYSASWAKGRFTISKDNSKNTLYLQMNSLRAEDTAVYYCARVGFFVGYGAYDYGIIHRLDLWGQGTLVTVSS VL: DIQLTQSPSTLSASVGDRVTITCQSSKSIYNNNWLSWYQQKPGKPPKLLIYDASDLASGVPSRFSGSGSGTEFTLTISSLQPDDFATYYCAGGYSGDSDYAFGGGTKVEIK

>  <reported-value>
57

$$$$
>  <binder>
h10C3.v14 (antibody, V domains shown, Humanized, human IgG1; also called 10C3 Humanized polished mAb) VH: EVQLVESGGGLVQPGGSLRLSCAASGFSLSGYTMGWVRQAPGKGLEYIGVISSGGTTYYTNWAKGRFTISKDNSKNTLYLQMGSLRAEDMAVYYCARVAFTAYGGGGFPTLHRLDLWGQGTLVTVSS VL: DQVLTQSPDSLAVSLGERATINCQSSESVYNNDYLAWYQQKPGQPPKLLIYSASTLASGVPDRFSGSGSGTDFTLTISSLQAEDVAVYYCAGGYLGNNVFGGGTKVEIK

>  <reported-value>
61

$$$$
